procedure-summary: Half life in rat liver microsomes at 10 uM
Format: ADME, Microsome

{"columns": ["smiles-input", "half-life at 10 µM (min)"],
 "data": [
  ["Cn1c(-c2ccccn2)c(C2CCCCC2)c2ccc(C(=O)NC3(C(=O)Nc4ccc(/C=C/C(=O)O)cc4)CCC3)cc21", 17],
  ["Cn1c(-c2ccccn2)c(C2CCCCC2)c2ccc(C(=O)NC3(C(=O)Nc4ccc(C(=O)O)cc4)CCC3)cc21", 9],
  ["Cn1c(-c2ccccn2)c(C2CCCCC2)c2ccc(C(=O)N[C@@]3(C(=O)Nc4ccc(/C=C/C(=O)O)cc4)CCCNC3)cc21", 17],
  ["CN1CC[C@@](NC(=O)c2ccc3c(C4CCCCC4)c(-c4ccccn4)n(C)c3c2)(C(=O)Nc2ccc(/C=C/C(=O)O)cc2)C1", 18],
  ["CN1CCC(NC(=O)c2ccc3c(C4CCCCC4)c(-c4ccccn4)n(C)c3c2)(C(=O)Nc2ccc(/C=C/C(=O)O)cc2)CC1", 34]
]}
